assay: Selectivity index, ratio of IC50 for mouse J774 cells to IC50 for Leishmania donovani axenic amastigotes infected in mouse J774 cells; assay type: toxicity, cell-based; conditions: read-out: Ratio IC50
Quantity Name: selectivity ratio

CCCCCCCN1CCN(CCCC[C@H]2CNC(=N)N2CCCCC2CCCCC2)C1=N
2

Challenge: Query: selectivity ratio; subject: `N=C1NC[C@H](CCCCN2C[C@H](CC3CCCCC3)N(CCCCC3CCCCC3)C2=N)N1CCCCC1CCCCC1`
Response given: < 5

Challenge: Quick one: `CCCC[C@H]1CN(CCCC[C@H]2CNC(=N)N2CCC23CC4CC(CC(C4)C2)C3)C(=N)N1CCCCC1CCCCC1`
Response given: 41

Challenge: Another compound to look at: `CCCCCCCN1C(=N)N(CCCC[C@H]2CNC(=N)N2CCCCC2CCCCC2)C[C@@H]1CCCC`
Response given: 12
